- Measurement description: qHTS for Inhibitors of human tyrosyl-DNA phosphodiesterase 1 (TDP1): qHTS in cells in absence of CPT; further: nearly all actives have a fitted effect of over 55% in size
- Applied conditions: DT40 Tdp1-/- hTDP1 cells, no CPT, ATP luminescence, 48 h
In all, about 420,000 compounds went through this assay and about 64,000 (15%) were called active. About 27% were inconclusive and are not listed. The call rests on the fitted dose curve; in most records, active means well fitted inhibition curve with a large enough effect; inconclusive means small, poorly fitted or top-dose-only effect; inactive means flat fitted curve, though single readings scatter. These entries were drawn from the full list.
Parameter call: string, one of Y = active, N = inactive

Prompt line: Field: outcome | Entry: CC1(C)OC[C@@H](COC(=O)CCc2ccc(OC[C@@H](O)CNCCNC(=O)N3CCOCC3)cc2)O1
Response line: N

More entries:
Prompt line: Answer briefly: the call reported for COc1cccc2c(C)c(C(=O)O)[nH]c12 in this assay.
Response line: N

Prompt line: Status in this test for Oc1ccc(CN2CCN(c3ncccn3)CC2)cc1 ?
Response line: N

###

- Measurement description: qHTS for Inhibitors of human tyrosyl-DNA phosphodiesterase 1 (TDP1): qHTS in cells in absence of CPT; further: nearly all actives have a fitted effect of over 55% in size
- Applied conditions: DT40 Tdp1-/- hTDP1 cells, no CPT, ATP luminescence, 48 h
The whole screen tested about 420,000 compounds, of which about 64,000 (15%) were called active. Another 27% or so got no clear call; they are omitted. These entries were drawn from the full list.
Measured property: outcome

Measured outcome, Cc1cccc(C(=O)Nc2ccc(CC(=O)O)cc2)c1 : inactive

Reported outcome ( CC(C)(O)C#Cc1ccc(C(=O)N2CCC(C(N)=O)(N3CCCCC3)CC2)cc1 ) = inactive

So for Cc1ccc(C(=O)Nc2ccc(NC(=O)c3cccs3)cc2)c(C)c1 , the logged outcome turned out to be inactive

outcome for C/C(=N\N)c1c(-c2ccccc2)c2cc(Br)ccc2[nH]c1=O is inactive

More entries:
// recorded outcome for Cc1ccc2c(c1)C1CN(C)CCC1N2C(=O)c1ccccc1NS(=O)(=O)c1ccc(F)cc1C (stereo not given) : inactive

###

- Measurement description: qHTS for Inhibitors of human tyrosyl-DNA phosphodiesterase 1 (TDP1): qHTS in cells in absence of CPT; further: nearly all actives have a fitted effect of over 55% in size
- Applied conditions: DT40 Tdp1-/- hTDP1 cells, no CPT, ATP luminescence, 48 h
Out of some 420,000 compounds screened, about 64,000 (15%) were called active. Roughly 27% stayed inconclusive and do not appear here. Calls come from the whole dose curve; as a rule, active = well fitted inhibition curve with a large enough effect; inconclusive = small, poorly fitted or top-dose-only effect; inactive = flat fitted curve, though single readings scatter. These entries were drawn from the full list.
Return exactly one item of true (1) for active, false (0) for inactive

Use the examples below as a reference point.
Prompt line: Assay result, entry CC(C)NC(=O)N1CCC2(CC1)CCN(C(=O)c1cccn1C)CC2 — outcome?
Response line: false (0)

Prompt line: What classification did CCOC(=O)c1cc2c(=O)n3ccccc3nc2n(CC(C)C)c1=NC(=O)c1c(-c2c(F)cccc2Cl)noc1C end up with in this test?
Response line: true (1)

Prompt line: Answer briefly: the call reported for O=C(NCc1ccc2c(c1)OCO2)C(=O)NCC1OCCN1S(=O)(=O)c1ccc(F)cc1 (stereo not given) in this assay.
Response line: false (0)

Prompt line: Recorded test outcome, item CC(=O)c1ccc(N2CCN(CC(=O)Nc3ccccc3N3CCOCC3)CC2)cc1
Response line: true (1)

Prompt line: I'd appreciate the recorded outcome for Cn1cccc1C(=O)N1CCC2(CC1)CN(c1cccc(-c3ccccc3)c1)C2 from this test.
Response line: true (1)

New cases:
Prompt line: Which outcome was assigned to Cc1ccc(S(=O)(=O)/N=S(\C)C(C)C)cc1 (stereo not given) in this test?
Response line: false (0)

Prompt line: Can you look up the reported call for CCc1[nH]nc(C(=O)N2CCCC(CNS(=O)(=O)c3cccs3)C2)c1C (stereo not given) for me?
Response line: false (0)

Prompt line: GET /call?item= O=C(CN1CCCCC1)Nc1ccccc1C(=O)NC1CC1 returns the recorded outcome of this test.
Response line: false (0)

Prompt line: How did this test come out for CCOC(=O)c1cc2c(=O)n3ccccc3nc2n(CCCOC)c1=NC(=O)C(C)Oc1ccccc1 (stereo not given) ?
Response line: false (0)

Prompt line: Tell me the assay call for CC1(C)CC(O)C(CCC(O)c2ccccc2)C(C)(C)N1 (stereo not given) please.
Response line: false (0)

###

- Measurement description: qHTS for Inhibitors of human tyrosyl-DNA phosphodiesterase 1 (TDP1): qHTS in cells in absence of CPT; further: nearly all actives have a fitted effect of over 55% in size; further: potency means the concentration at half of the fitted maximal effect
- Applied conditions: DT40 Tdp1-/- hTDP1 cells, no CPT, ATP luminescence, 48 h
In all, about 420,000 compounds went through this assay and about 64,000 (15%) were called active. Inconclusive results (about 27%) are left out. These entries were drawn from the full list.
Measured property: Potency

Below, 8 compounds whose answers are already recorded.
Reported Potency of COc1cc(C(=O)NNC(=O)CN2C(=O)NC3(CCCC3)C2=O)cc(OC)c1OC : inactive

For Cc1ccc(NC(=O)c2csc3c2CCCC3)cc1 the compound record lists Potency as inactive

Potency reported for this compound CCOC(=O)c1ccc(NC(=O)c2csc3c2CCCCC3)cc1 : 14.6 µM (active)

Form field Potency, entry CCOC(=O)c1ccc(NC(=O)c2c(NCc3cccs3)sc3c2CCCC3)cc1 : 20.6 µM (active)

Record COC(=O)c1sc(NC(=O)c2csc3c2CCCC3)nc1C . Reported Potency: 23.1 µM (active)

Just so you know, measured Potency for CCOC(=O)c1c(NC(=O)Cc2coc3ccc(CC)cc23)sc2c1CCC2 came out at inactive

// Potency lookup, compound = CCOC(=O)c1ccc(NC(=O)c2c(NCc3ccccc3)[nH]c(=O)[nH]c2=O)cc1 , result: inactive

Noted for CCOC(=O)c1ccc(NC(=O)CNC(=O)c2ccco2)cc1 : its Potency reads inactive

Further cases:
get_value(item= CCC(C)(C)n1nnnc1C(c1ccc(OC)c(OC)c1)N1CCN(C(=O)c2ccco2)CC1 (stereo unspecified) , readout=Potency) returns inactive

Measured Potency of CCC(C)(C)n1nnnc1C(c1cccs1)N1CCN(c2nc3ccccc3s2)CC1 (stereo unspecified) : 15.8 µM (active)

For CC(C#N)OC(=O)c1cccnc1SCC(=O)Nc1ccc2c(c1)OCO2 (stereo unspecified) the compound record lists Potency as inactive

###

- Measurement description: qHTS for Inhibitors of human tyrosyl-DNA phosphodiesterase 1 (TDP1): qHTS in cells in absence of CPT; further: nearly all actives have a fitted effect of over 55% in size; further: potency means the concentration at half of the fitted maximal effect
- Applied conditions: DT40 Tdp1-/- hTDP1 cells, no CPT, ATP luminescence, 48 h
Among all 420,000 compounds or so, about 64,000 (15%) were called active. Roughly 27% stayed inconclusive and do not appear here. These entries were drawn from the full list.
Measured property: Potency

C=CCN1C(=O)c2ccc(C(=O)N3CCC(C(=O)OCC)CC3)cc2C1=O has a reported Potency of inactive

Notebook: O=C1CCCC2=C1C(c1cccs1)CC(=O)N2c1ccc(F)cc1 (stereo not given) , Potency read as inactive

Recorded result, C/C(=N\NC(=O)COc1ccc(C)cc1[N+](=O)[O-])c1ccc2c(c1)OCCO2 , Potency: inactive

The reported value for COc1ccc(S(=O)(=O)N(C)C[C@H]2Oc3c(NC(=O)Nc4ccc5c(c4)OCO5)cccc3C(=O)N([C@H](C)CO)C[C@@H]2C)cc1 in terms of Potency is 20.6 µM (active)

Summary for this compound, CCCCC(=O)N(c1ccc(OC)cc1)C1C=CS(=O)(=O)C1 (stereo not given) : Potency is inactive

Kindly note the recorded Potency for CCCCNC1(C#N)CCN(Cc2ccccc2)CC1 , which is inactive

Consider C=CCn1c(SCC(=O)CC(=O)OCC)nc2cc(C(=O)N3CCC(C(N)=O)CC3)ccc2c1=O . Its measured Potency is inactive

The reported Potency of the compound O=C1CCCC2=C1C(c1cccs1)n1nc(SCc3ccccc3)nc1N2 (stereo not given) was 14.6 µM (active)

// Potency value for CCN(CC)c1ccc(C2C(C(N)=O)=C(C)Nc3nc(SCc4ccccc4)nn32)cc1 (stereo not given) : inactive

Please examine the following record next.
Lookup result for Cc1ccccc1Nc1nn2c(=O)c3ccc(C(=O)NCCc4ccc(Cl)cc4)cc3nc2s1 ; measured Potency: 14.6 µM (active)

###

- Measurement description: qHTS for Inhibitors of human tyrosyl-DNA phosphodiesterase 1 (TDP1): qHTS in cells in absence of CPT; further: nearly all actives have a fitted effect of over 55% in size
- Applied conditions: DT40 Tdp1-/- hTDP1 cells, no CPT, ATP luminescence, 48 h
The whole screen tested about 420,000 compounds, of which about 64,000 (15%) were called active. Inconclusive results (about 27%) are left out. The call rests on the fitted dose curve; in most records, active means well fitted inhibition curve with a large enough effect; inconclusive means small, poorly fitted or top-dose-only effect; inactive means flat fitted curve, though single readings scatter. The list is a sample of the results.
Outcome field: choose from label 1 for active, label 0 for inactive

Examples with answers:
Prompt line: For COc1ccc(OC)c(C(=O)CSc2nnc(-c3cccs3)o2)c1 , which call appears in the assay record?
Response line: label 0

Prompt line: Give the logged outcome of this assay for the following compound: COc1ccc(C2C3=C(CCCC3=O)N(CC(=O)O)C3=C2C(=O)CCC3)cc1
Response line: label 0

Prompt line: Assay result, entry Cc1ccc(OC(=O)CSc2nnc(-c3cccs3)o2)cc1 — outcome?
Response line: label 0

Prompt line: Which outcome was entered for the compound CCOc1cccc(SCc2noc(C(=O)NC(C)C)c2C(=O)O)c1 in this test?
Response line: label 0

Prompt line: Tell me the assay call for CC(=O)N1CCC2(CCCN(c3ncccn3)C2)CC1 please.
Response line: label 0

Further cases:
Prompt line: What outcome does the record of this test show for COc1ccc(-n2c(C)cc(C(=O)CSc3nnc(-c4cccs4)o3)c2C)cc1 ?
Response line: label 1

Prompt line: Look up the recorded call for CCN(CC(=O)Nc1c(F)cccc1F)C(=O)c1cnc(C)cn1 in this test.
Response line: label 0

Where do these numbers come from? They come from PubChem BioAssay AID686978.
